# subject of test: RPS6KA4 KD2 (human) (UniProt O75676)
# Sequence (O75676 whole entry, looked up): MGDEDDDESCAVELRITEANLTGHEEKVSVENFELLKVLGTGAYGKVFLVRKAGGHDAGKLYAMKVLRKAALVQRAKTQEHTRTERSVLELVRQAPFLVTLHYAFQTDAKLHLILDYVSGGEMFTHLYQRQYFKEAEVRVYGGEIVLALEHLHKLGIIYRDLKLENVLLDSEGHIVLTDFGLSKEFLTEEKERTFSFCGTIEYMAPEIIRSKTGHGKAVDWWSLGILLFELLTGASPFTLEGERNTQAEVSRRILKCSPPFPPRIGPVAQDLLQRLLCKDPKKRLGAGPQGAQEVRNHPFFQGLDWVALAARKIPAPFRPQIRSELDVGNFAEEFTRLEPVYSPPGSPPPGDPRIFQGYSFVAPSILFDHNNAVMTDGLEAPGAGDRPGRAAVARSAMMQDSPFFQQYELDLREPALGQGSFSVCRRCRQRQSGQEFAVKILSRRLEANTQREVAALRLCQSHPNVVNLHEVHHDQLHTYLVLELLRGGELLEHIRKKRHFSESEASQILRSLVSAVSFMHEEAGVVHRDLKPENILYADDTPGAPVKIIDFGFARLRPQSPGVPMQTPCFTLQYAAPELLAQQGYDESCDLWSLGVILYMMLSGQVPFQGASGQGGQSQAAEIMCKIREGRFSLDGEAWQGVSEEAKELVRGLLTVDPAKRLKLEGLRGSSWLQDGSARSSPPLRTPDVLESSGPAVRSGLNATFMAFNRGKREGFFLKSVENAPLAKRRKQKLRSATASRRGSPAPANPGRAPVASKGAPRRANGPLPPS
# assay remarks: KINOMEscan competition binding
# setup conditions: compound 10.0 µM
Give kinase still bound, per cent of control for every item shown.
Report the figure in % without appending any unit label.

Provide RPS6KA4 KD2 (human) (UniProt O75676) kinase still bound, per cent of control reading for `CC[C@@H]1C(=O)N(C)c2cnc(Nc3ccc(C(=O)NC4CCN(C)CC4)cc3OC)nc2N1C1CCCC1` .
0

Provide RPS6KA4 KD2 (human) (UniProt O75676) kinase still bound, per cent of control reading for `CCC(=O)N1CCN(c2ccc(-n3c(=O)ccc4cnc5ccc(-c6cnc7ccccc7c6)cc5c43)cc2C(F)(F)F)CC1` .
100

Provide RPS6KA4 KD2 (human) (UniProt O75676) kinase still bound, per cent of control reading for `COc1cc(C(=O)NC2CCN(C)CC2)ccc1Nc1ncc2c(n1)N(C1CCCC1)CCC(=O)N2C(C)C` .
100

Provide RPS6KA4 KD2 (human) (UniProt O75676) kinase still bound, per cent of control reading for `CN(C)C/C=C/C(=O)Nc1cccc(Nc2ncc3c(n2)N(C)c2ccccc2C(=O)N3C)c1` .
70

Provide RPS6KA4 KD2 (human) (UniProt O75676) kinase still bound, per cent of control reading for `O=C(NC1CC1)c1cccc(-c2ccc3c(NC(=O)C4CC4)n[nH]c3c2)c1` .
100

Provide RPS6KA4 KD2 (human) (UniProt O75676) kinase still bound, per cent of control reading for `Cc1cc([C@@H](C)Nc2ccccc2C(=O)O)c2nc(N3CCOCC3)cc(=O)n2c1` .
100

Provide RPS6KA4 KD2 (human) (UniProt O75676) kinase still bound, per cent of control reading for COc1cc(C(=O)NC2CCN(C)CC2)ccc1Nc1ncc2c(n1)N(C1CCCC1)C(C)CC(=O)N2C (centres undefined) .
100

Provide RPS6KA4 KD2 (human) (UniProt O75676) kinase still bound, per cent of control reading for `O=C1Nc2ccc(I)cc2/C1=C/c1cc(Br)c(O)c(Br)c1` .
47

Provide RPS6KA4 KD2 (human) (UniProt O75676) kinase still bound, per cent of control reading for `CCCS(=O)(=O)Nc1ccc(F)c(C(=O)c2c[nH]c3ncc(-c4ccc(Cl)cc4)cc23)c1F` .
96
